Quick reference for growth AUC among some compounds
System: Parabacteroides distasonis
Assay: growth AUC relative to DMSO control (median of replicates) (fraction); higher = more growth (less inhibition), active = hit call of the paper
Details: 20 µM; 24 h
Please respond with just the number, no unit label.

Please review the entries below; each comes with its answer.
c1ccc(-c2ccccc2)cc1 : 1.04
N#CN=C1SCCN1Cc1ccc(Cl)nc1 : 1.03

Sample CC(C)=CC1C(C(=O)OC(C#N)c2cccc(Oc3ccccc3)c2)C1(C)C (mixture of isomers) — what was its growth AUC?
1

Sample N#Cc1c(Cl)c(Cl)c(Cl)c(C#N)c1Cl — what was its growth AUC?
0.682

Sample COC(=O)c1ccccc1S(=O)(=O)NC(=O)N(C)c1nc(C)nc(OC)n1 — what was its growth AUC?
0.98

Sample O=C(O)COc1nc(Cl)c(Cl)cc1Cl — what was its growth AUC?
0.781

Sample CCc1cc(C)cc(CC)c1-c1c(OC(=O)C(C)(C)C)n2n(c1=O)CCOCC2 — what was its growth AUC?
0.851

Sample CCOC(=O)CCN(SN(C)C(=O)Oc1cccc2c1OC(C)(C)C2)C(C)C — what was its growth AUC?
1.05

Sample N#Cc1c[nH]cc1-c1cccc(Cl)c1Cl — what was its growth AUC?
0.804
